Entry source: paper PMC12298351

Entries annotated with measured Total growth inhibition (TGI)
- Test system: SK-MEL-2
- condition-description: SK-MEL-2, Melanoma
Your answer should be a plain number; it is taken to be in µM.

Example entries begin here.
C=C1CCC2C3(C)COC(c4cn(-c5ccccc5)nc4-c4cccc([N+](=O)[O-])c4)OC3CCC2(C)C1CC=C1C(=O)OCC1O (stereo not drawn)
3.51
C=C1CCC2C3(C)COC(c4cn(-c5ccccc5)nc4-c4ccc(OC)cc4)OC3CCC2(C)C1CC=C1C(=O)OCC1O (stereo not drawn)
3.08

Now look at this one.
Q: Which value of Total growth inhibition (TGI) has been reported for C=C1CCC2C3(C)COC(c4cn(-c5ccccc5)nc4-c4ccccc4)OC3CCC2(C)C1CC=C1C(=O)OCC1O (stereo not drawn) in the records?
A: 3.54

---

Catalogue of CC50 values
- Test system: OVCAR-3
- condition-description: read-out: 50% lethal concentration (LC50); OVCAR-3, Ovarian
Use µM as the unit, but write only the number.

Q: So what does the record say about CC50 for C=C1CCC2C3(C)COC(c4cn(-c5ccccc5)nc4-c4ccc(F)cc4)OC3CCC2(C)C1CC=C1C(=O)OCC1O (stereo not shown) [1f] ?
A: 6.79

Q: Request the reported CC50 associated with C=C1CCC2C3(C)COC(c4cn(-c5ccccc5)nc4-c4ccccc4)OC3CCC2(C)C1CC=C1C(=O)OCC1O (stereo not shown) [1a]
A: 6.16

Q: Given the molecule C=C1CCC2C3(C)COC(c4cn(-c5ccccc5)nc4-c4cccc(Cl)c4)OC3CCC2(C)C1CC=C1C(=O)OCC1O (stereo not shown) [1d] , what is its reported CC50?
A: 5.95

Q: Look up CC50: C=C1CCC2C3(C)COC(c4cn(-c5ccccc5)nc4-c4ccc(OC)cc4)OC3CCC2(C)C1CC=C1C(=O)OCC1O (stereo not shown) [1j]
A: 5.84

Q: Entry C=C1CCC2C3(C)COC(c4cn(-c5ccccc5)nc4-c4cccc(Br)c4)OC3CCC2(C)C1CC=C1C(=O)OCC1O (stereo not shown) [1e] : reported CC50 = ?
A: 6.08

Q: If you can, please state the reported CC50 value of C=C1CCC2C3(C)COC(c4cn(-c5ccccc5)nc4-c4cccc([N+](=O)[O-])c4)OC3CCC2(C)C1CC=C1C(=O)OCC1O (stereo not shown) [1b] .
A: 7.55

Q: Which measured CC50 value corresponds to C=C1CCC2C3(C)COC(c4cn(-c5ccccc5)nc4-c4cccc(F)c4)OC3CCC2(C)C1CC=C1C(=O)OCC1O (stereo not shown) [1c] ?
A: 6.94

---

- System: NCI-H522
- condition-description: read-out: 50% lethal concentration (LC50); NCI-H522, Non-Small Cell Lung
experimental-readout: CC50
Form entry: enter the amount, then its unit.

Worked examples follow.
C=C1CCC2C3(C)COC(c4cn(-c5ccccc5)nc4-c4ccc(F)cc4)OC3CCC2(C)C1CC=C1C(=O)OCC1O (stereo not shown)
7.48 µM
C=C1CCC2C3(C)COC(c4cn(-c5ccccc5)nc4-c4ccccc4)OC3CCC2(C)C1CC=C1C(=O)OCC1O (stereo not shown)
7.85 µM
C=C1CCC2C3(C)COC(c4cn(-c5ccccc5)nc4-c4ccc(Br)cc4)OC3CCC2(C)C1CC=C1C(=O)OCC1O (stereo not shown)
6.68 µM
C=C1CCC2C3(C)COC(c4cn(-c5ccccc5)nc4-c4ccc(C)cc4)OC3CCC2(C)C1CC=C1C(=O)OCC1O (stereo not shown)
6.86 µM
C=C1CCC2C3(C)COC(c4cn(-c5ccccc5)nc4-c4cccc(F)c4)OC3CCC2(C)C1CC=C1C(=O)OCC1O (stereo not shown)
6.24 µM

Q: Returns the measured CC50 for the input molecule. Input: C=C1CCC2C3(C)COC(c4cn(-c5ccccc5)nc4-c4cccc([N+](=O)[O-])c4)OC3CCC2(C)C1CC=C1C(=O)OCC1O (stereo not shown)
A: 6.65 µM

Q: Please report the recorded CC50 for C=C1CCC2C3(C)COC(c4cn(-c5ccccc5)nc4-c4cccc(Cl)c4)OC3CCC2(C)C1CC=C1C(=O)OCC1O (stereo not shown) .
A: 5.65 µM
